# Assay: Cytotoxicity against human Huh7 cells assessed as rRNA level after 5 days
# Format: cell-based
# Measurement parameters: huh-7, 120 h
Observable: CC50

Asked: Reported CC50 for `Nc1ccn([C@@H]2O[C@H](CO)[C@@H](O)[C@]2(O)F)c(=O)n1` : what is it?
Given back: > 50 µM

Asked: Subsequent entry: `C[C@@]1(O)[C@H](O)[C@@H](CO)O[C@H]1n1ccc(N)nc1=O`
Given back: > 50 µM

* * *

# Test system: Hepatitis B virus
# Assay: Antiviral activity against adefovir-resistant HBV reverse transcriptase LM/reverse transcriptase MV double mutant in human Huh7 cells after 4 days by intracellular HBV DNA replication assay
# Type: functional, organism-based
# Measurement parameters: Huh-7, 96 h
Observable: EC50 (nM)
Give a bare numeral; the unit nM is implied.

> print(dat)
                           smiles.text  display.unit  readout.value
1  Nc1ccn([C@@H]2CS[C@H](CO)O2)c(=O)n1            nM           1600

Asked: What value of EC50 has been reported for the following compound? `Nc1ncnc2c1ncn2CCOCP(=O)(O)O`
Given back: 1600

* * *

log10 of EC50 for assorted molecules
# System: Hepatitis C virus
# Assay: Antiviral activity against HCV in ET cells assessed as activity of luciferase reporter by subgenomic RNA replicon assay
# Assay type: functional, organism-based, Hepacivirus hominis
The figures below represent log10 of EC50, where EC50 is stated in µM.

Field: example entries. Status: answers known.
> print(dat)
                                smiles.text  readout.value
1  NC(=O)c1cn([C@@H]2C=C(CO)[C@@H](O)[C@H]2O)c2ncnc(N)c12           0.26
2  C[C@@]1(O)[C@H](O)[C@@H](CO)O[C@H]1n1cnc2c(N)ncnc21          -0.82
3  Nc1ncnc2c1c(Cl)cn2[C@@H]1C=C(CO)[C@@H](O)[C@H]1O           1.17
4  Nc1ncnc2c1c(I)cn2[C@@H]1C=C(CO)[C@@H](O)[C@H]1O           0.32

Asked: # log10 of EC50 lookup, item `C#Cc1cn([C@@H]2C=C(CO)[C@@H](O)[C@H]2O)c2ncnc(N)c12`
Given back: 1.30

Asked: Quick one: `Nc1ncnc2c1c(Br)cn2[C@@H]1C=C(CO)[C@@H](O)[C@H]1O`
Given back: 1.22

* * *

# Assay: Cytotoxicity against human HepG2(2.2.15) cells assessed as uptake of neutral red dye after 24 hrs
# Assay type: cell-based
# Measurement parameters: HepG2 2.2.15, 24 h
Observable: IC50

A selection of reference data follows.
> print(dat)
                                smiles.text  readout.value
1  Nc1ncnc2c1c(Cl)cn2[C@@H]1C=C(CO)[C@@H](O)[C@H]1O       > 300 µM
2  C=Cc1cn([C@@H]2C=C(CO)[C@@H](O)[C@H]2O)c2ncnc(N)c12       > 300 µM
3  Nc1ncnc2c1c(F)cn2[C@@H]1C=C(CO)[C@@H](O)[C@H]1O       > 300 µM
4  Nc1ncnc2c1c([N+](=O)[O-])cn2[C@@H]1C=C(CO)[C@@H](O)[C@H]1O       > 300 µM

Please find the next compound below.
Asked: Returns the measured IC50 for the input compound. Input: `NC(=O)c1cn([C@@H]2C=C(CO)[C@@H](O)[C@H]2O)c2ncnc(N)c12`
Given back: 300 µM

* * *

# Lookup of reported IC50 keyed by entry
# Assay: Cytotoxicity against ET cells
# Assay type: cell-based
# Measurement parameters: ET
Give the value, in units of µM, as a plain number.

Completed entries (count: 4):
> print(dat)
                                smiles.text  observable  readout.value
1  NC(=O)c1cn([C@@H]2C=C(CO)[C@@H](O)[C@H]2O)c2ncnc(N)c12        IC50           11.8
2  Nc1ncnc2c1c(Cl)cn2[C@@H]1C=C(CO)[C@@H](O)[C@H]1O        IC50           50.1
3  Nc1ncnc2c1c(I)cn2[C@@H]1C=C(CO)[C@@H](O)[C@H]1O        IC50             15
4  Nc1ncnc2c1c(Br)cn2[C@@H]1C=C(CO)[C@@H](O)[C@H]1O        IC50           41.7

Shifting focus to the compound that follows.
Asked: Looking for the measured IC50 of `C#Cc1cn([C@@H]2C=C(CO)[C@@H](O)[C@H]2O)c2ncnc(N)c12` , can you help?
Given back: 48.9

* * *

Recorded IC50 for the following molecules
# Assay: Cytotoxicity against human HepG2(2.2.15) cells assessed as uptake of neutral red dye after 24 hrs
# Assay type: cell-based
# Measurement parameters: HepG2 2.2.15, 24 h

> print(dat)
                                smiles.text  observable  readout.value
1  C#Cc1cn([C@@H]2C=C(CO)[C@@H](O)[C@H]2O)c2ncnc(N)c12        IC50       > 300 µM
2  Nc1ncnc2c1c(Br)cn2[C@@H]1C=C(CO)[C@@H](O)[C@H]1O        IC50       > 300 µM
3       Nc1ccn([C@@H]2CS[C@H](CO)O2)c(=O)n1        IC50      > 2000 µM
4  Nc1ncnc2c1c(I)cn2[C@@H]1C=C(CO)[C@@H](O)[C@H]1O        IC50       > 300 µM

Shift focus to the following entry.
Asked: GET /values?readout=IC50&item= `N#Cc1cn([C@@H]2C=C(CO)[C@@H](O)[C@H]2O)c2ncnc(N)c12`
Given back: > 300 µM
